Molecular target: panel of 203 kinases (Homo sapiens, UniProt O95819)
Construct: purchased DiscoverX (KINOMEscan)
Sequence (O95819 whole entry): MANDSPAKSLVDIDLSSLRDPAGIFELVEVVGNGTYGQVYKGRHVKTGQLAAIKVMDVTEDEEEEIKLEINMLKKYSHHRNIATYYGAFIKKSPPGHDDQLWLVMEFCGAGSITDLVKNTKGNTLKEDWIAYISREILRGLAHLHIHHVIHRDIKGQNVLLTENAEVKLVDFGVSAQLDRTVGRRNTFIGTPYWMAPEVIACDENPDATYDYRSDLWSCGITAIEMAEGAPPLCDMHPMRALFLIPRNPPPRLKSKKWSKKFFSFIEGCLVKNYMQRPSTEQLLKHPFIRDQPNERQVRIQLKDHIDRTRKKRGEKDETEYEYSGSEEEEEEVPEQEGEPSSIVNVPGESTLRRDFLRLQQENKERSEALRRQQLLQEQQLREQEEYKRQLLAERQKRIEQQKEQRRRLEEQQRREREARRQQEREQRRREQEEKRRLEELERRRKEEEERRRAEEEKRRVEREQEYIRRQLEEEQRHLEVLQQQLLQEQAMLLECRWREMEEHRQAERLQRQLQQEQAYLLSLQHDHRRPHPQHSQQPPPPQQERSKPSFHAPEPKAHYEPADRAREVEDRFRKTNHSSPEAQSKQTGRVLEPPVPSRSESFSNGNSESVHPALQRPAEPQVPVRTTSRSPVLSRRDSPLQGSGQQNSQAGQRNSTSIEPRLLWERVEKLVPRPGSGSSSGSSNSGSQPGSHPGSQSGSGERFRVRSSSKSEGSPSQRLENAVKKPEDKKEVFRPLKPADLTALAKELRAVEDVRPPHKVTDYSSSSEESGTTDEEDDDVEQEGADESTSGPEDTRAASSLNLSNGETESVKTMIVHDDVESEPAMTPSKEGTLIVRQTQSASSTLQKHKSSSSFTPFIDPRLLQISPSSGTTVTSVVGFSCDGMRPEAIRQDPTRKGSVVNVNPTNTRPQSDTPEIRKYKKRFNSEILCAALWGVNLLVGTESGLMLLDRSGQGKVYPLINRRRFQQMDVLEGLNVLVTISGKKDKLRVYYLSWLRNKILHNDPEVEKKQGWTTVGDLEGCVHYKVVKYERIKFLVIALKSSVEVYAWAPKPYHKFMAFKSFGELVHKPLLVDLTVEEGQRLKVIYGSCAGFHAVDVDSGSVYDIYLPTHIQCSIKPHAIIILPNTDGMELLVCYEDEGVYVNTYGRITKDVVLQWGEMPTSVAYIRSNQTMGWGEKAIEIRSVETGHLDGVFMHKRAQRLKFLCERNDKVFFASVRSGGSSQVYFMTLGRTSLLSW
Assay: KINOMEscan competitive binding, whole panel
Settings: 10 µM, n=1; kinase MAP4K4; read-out: Percent inhibition MAP4K4
Output rule met for inhibition at 10 µM not less than 80%; output rule not met otherwise.

Cc1ccc(O)cc1Nc1ccnc(Nc2cccc(C(N)=O)c2)n1    rule met
COc1ccc(Nc2nccc(-c3cnn4ncccc34)n2)cc1    rule not met
C[C@@H](Oc1cc(-c2cnc3ccccn23)sc1C(N)=O)c1ccccc1Cl    rule not met
Clc1ccc(Nc2ncc(-c3ccccc3)s2)cc1    rule not met
Cc1ccc(O)cc1N(C)c1ccnc(Nc2cccc(S(N)(=O)=O)c2)n1    rule met
Fc1cccc(COc2ccc(Nc3ncnc4c3CN(CCN3CCOCC3)CC4)cc2Cl)c1    rule not met
Nc1ncc2c(-c3ccncc3)c[nH]c2n1    rule met
c1ccc(COc2cccc(-c3ccnc4[nH]ccc34)c2)cc1    rule not met
COc1cc(Nc2nccc(-c3sc(N)nc3-c3cccc(NC(=O)c4c(F)cccc4F)c3)n2)cc(OC)c1OC    rule met
